From various publications: IC50 for Aromatase (Homo sapiens).
experimental system: Aromatase (Homo sapiens)
Sequence (P11511 whole entry): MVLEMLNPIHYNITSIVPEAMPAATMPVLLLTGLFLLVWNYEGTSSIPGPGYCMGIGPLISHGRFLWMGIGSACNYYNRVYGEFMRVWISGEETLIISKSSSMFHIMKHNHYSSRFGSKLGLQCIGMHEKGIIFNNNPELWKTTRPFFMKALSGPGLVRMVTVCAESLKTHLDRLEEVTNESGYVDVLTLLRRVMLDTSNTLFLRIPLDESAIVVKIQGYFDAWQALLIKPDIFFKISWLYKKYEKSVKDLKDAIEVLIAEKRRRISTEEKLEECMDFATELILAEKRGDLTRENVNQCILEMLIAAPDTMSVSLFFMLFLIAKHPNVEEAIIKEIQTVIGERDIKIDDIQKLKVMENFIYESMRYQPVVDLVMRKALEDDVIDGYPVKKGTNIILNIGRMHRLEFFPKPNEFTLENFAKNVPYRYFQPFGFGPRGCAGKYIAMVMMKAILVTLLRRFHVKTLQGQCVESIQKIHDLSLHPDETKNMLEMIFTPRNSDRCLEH
Unit µM implied. Number only.

{"compound": "CC(C)(C)c1ccc(CN(Cc2ccc(-c3ccccc3)cc2)n2ccnc2)cc1", "experimental system": "Aromatase (Homo sapiens)", "readout kind": "IC50", "endpoint unit": "µM", "number": 2.16}
{"compound": "CCCCCCCCCCc1cn(Cc2ccccc2)nn1", "experimental system": "Aromatase (Homo sapiens)", "readout kind": "IC50", "endpoint unit": "µM", "number": 6.4}
{"compound": "CC/C(=C1\\C=CC(=O)S1)C(CC)c1ccc(OC(C)=O)cc1 (stereo unspecified)", "experimental system": "Aromatase (Homo sapiens)", "readout kind": "IC50", "endpoint unit": "µM", "number": 15.5}

// query Any idea what its IC50 is? The compound is `CN(C)S(=O)(=O)Oc1ccc(-c2cc(Cn3cncn3)ccc2C#N)cc1Cl`
// result 0.0024

// query And then `COc1ccc(/C=C2\Cc3ccccc3C2=O)cc1OCCCn1ccnc1` , what is it?
// result 1.34

// query Moving on to the next compound: `c1ccc(Cn2cc(-c3ccccc3)nn2)cc1`
// result 9.77

// query Also need `CC(C)(C#N)c1cc(Cn2cncn2)cc(-c2ccccc2)c1` , thanks.
// result 0.0005

// query Same read-out for `O=C(c1ccc(-c2ccccc2)cc1)c1cccc(Cn2ccnc2)c1` ?
// result 0.0053

// query Okay, and `COc1ccc(S(=O)(=O)NCCc2c(C(c3cc(OC)c(O)c(OC)c3)c3[nH]c4ccccc4c3CCNS(=O)(=O)c3ccc(OC)cc3)[nH]c3ccccc23)cc1` ?
// result 2.5

----------
Collected literature values of pIC50 measured for Aromatase (Homo sapiens).
experimental system: Aromatase (Homo sapiens)
Sequence (P11511 whole entry): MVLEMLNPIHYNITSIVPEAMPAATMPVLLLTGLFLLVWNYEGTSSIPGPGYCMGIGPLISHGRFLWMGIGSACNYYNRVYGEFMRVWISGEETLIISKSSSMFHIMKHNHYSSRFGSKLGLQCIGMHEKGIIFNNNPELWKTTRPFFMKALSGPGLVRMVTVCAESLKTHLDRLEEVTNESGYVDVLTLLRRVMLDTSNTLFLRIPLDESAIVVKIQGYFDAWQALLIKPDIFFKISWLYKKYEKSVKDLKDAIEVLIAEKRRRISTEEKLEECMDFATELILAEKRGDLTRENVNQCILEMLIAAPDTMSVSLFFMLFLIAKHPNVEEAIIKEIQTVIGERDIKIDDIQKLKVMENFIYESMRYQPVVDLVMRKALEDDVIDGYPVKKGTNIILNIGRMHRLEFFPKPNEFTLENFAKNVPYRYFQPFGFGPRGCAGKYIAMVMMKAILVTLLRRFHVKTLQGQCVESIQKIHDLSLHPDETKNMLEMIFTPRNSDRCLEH
# pIC50: negative log10 of molar concentration; output just the value

Here is how some molecules turned out for pIC50.
{"smiles structure": "O=C(/C=C/c1ccc(O)c(O)c1)O[C@H]1[C@H](O)[C@@H](O[C@@H]2OC[C@](O)(CO)[C@H]2O)[C@H](OCCc2ccc(O)cc2)O[C@@H]1CO", "experimental system": "Aromatase (Homo sapiens)", "pIC50": 4.51}
{"smiles structure": "C(=C(c1ccccc1)c1ccccc1)c1cccnc1", "experimental system": "Aromatase (Homo sapiens)", "pIC50": 5.43}
{"smiles structure": "CC/C=C\\C/C=C\\C/C=C\\C/C=C\\C/C=C\\CCCC(=O)O", "experimental system": "Aromatase (Homo sapiens)", "pIC50": 4.27}
{"smiles structure": "Cc1ccc(S(=O)(=O)NCCc2c(C(c3ccccc3)c3[nH]c4ccccc4c3CCNS(=O)(=O)c3ccc(C)cc3)[nH]c3ccccc23)cc1", "experimental system": "Aromatase (Homo sapiens)", "pIC50": 4.92}
{"smiles structure": "O=S(=O)(NCCc1c(C(c2ccc(F)cc2)c2[nH]c3ccccc3c2CCNS(=O)(=O)c2ccc(C(F)(F)F)cc2)[nH]c2ccccc12)c1ccc(C(F)(F)F)cc1", "experimental system": "Aromatase (Homo sapiens)", "pIC50": 5.36}

Now look at this entry.
// query Reported pIC50, molecule `N#Cc1cc(Cn2cncn2)cc(-c2ccc(F)cc2)c1` : ____
// result 7.72

----------
Target sequence: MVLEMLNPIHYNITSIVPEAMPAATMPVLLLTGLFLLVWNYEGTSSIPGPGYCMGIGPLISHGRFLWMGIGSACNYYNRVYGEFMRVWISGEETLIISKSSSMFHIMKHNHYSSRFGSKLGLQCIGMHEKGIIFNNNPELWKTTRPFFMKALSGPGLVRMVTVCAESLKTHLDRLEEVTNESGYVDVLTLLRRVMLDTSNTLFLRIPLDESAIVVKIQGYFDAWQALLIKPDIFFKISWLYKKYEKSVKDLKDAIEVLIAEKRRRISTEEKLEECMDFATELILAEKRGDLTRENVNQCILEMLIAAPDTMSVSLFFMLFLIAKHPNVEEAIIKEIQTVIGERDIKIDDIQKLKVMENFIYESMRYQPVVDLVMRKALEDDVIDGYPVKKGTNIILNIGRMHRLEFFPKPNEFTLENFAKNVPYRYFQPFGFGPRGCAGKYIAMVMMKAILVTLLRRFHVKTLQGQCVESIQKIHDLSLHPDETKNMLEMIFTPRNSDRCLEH
Assay read-out pIC50 on the protein given by its sequence; records merged from the literature.
Lab note — pIC50 values are minus log10 of concentrations in M.

{"smiles structure": "Fc1ccc2c(Cn3cncn3)c(-c3ccc(Cl)cc3)[nH]c2c1", "pIC50": 6.66}
{"smiles structure": "O=c1cc(Cn2ccnc2)c2ccc(OCCc3ccccc3)cc2o1", "pIC50": 6.19}
{"smiles structure": "O=[N+]([O-])c1ccc(-c2ccncc2)c(OCc2ccccc2)c1", "pIC50": 5.62}

Now for another entry.
// query Consider the molecule shown here: `c1ccc(Cn2cncn2)cc1` What is its recorded pIC50?
// result 5.39

----------
Across several studies, compounds have been characterized by their log10(IC50) on Aromatase (Homo sapiens, UniProt P11511); a selection follows.
experimental system: Aromatase (Homo sapiens, UniProt P11511)
Sequence (P11511 whole entry): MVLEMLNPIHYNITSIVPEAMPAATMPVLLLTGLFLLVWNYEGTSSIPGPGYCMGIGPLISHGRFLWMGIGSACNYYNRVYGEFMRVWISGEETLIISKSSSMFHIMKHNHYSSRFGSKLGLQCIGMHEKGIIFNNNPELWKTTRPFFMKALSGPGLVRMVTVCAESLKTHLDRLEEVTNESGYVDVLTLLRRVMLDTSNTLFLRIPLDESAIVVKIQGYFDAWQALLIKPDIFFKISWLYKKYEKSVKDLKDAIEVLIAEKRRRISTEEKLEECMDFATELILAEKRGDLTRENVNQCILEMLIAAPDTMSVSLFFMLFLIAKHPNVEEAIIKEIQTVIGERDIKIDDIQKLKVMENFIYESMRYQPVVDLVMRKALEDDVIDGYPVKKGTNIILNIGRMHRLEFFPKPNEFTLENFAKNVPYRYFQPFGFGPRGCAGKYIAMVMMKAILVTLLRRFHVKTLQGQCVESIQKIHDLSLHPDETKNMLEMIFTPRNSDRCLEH
# log10 transformed; quantity=IC50; unit=nM

Field: example entries. Status: answers known.
{"compound": "c1ccc(OCc2cn(C(c3ccccc3)c3ccccc3)nn2)cc1", "log10(IC50)": 4.50}
{"compound": "N#Cc1ccc2c(c1)CC/C2=C/c1ncc[nH]1", "log10(IC50)": 1.18}
{"compound": "CC(C)C(c1ccncc1)c1cc2c3c(c1)CCN3C(=O)CC2 (centres undefined)", "log10(IC50)": 2.95}

// query Form field: reported log10(IC50) of `N#Cc1ccc(Oc2cccnc2)cc1C#N`
// result 3.70

// query Try the compound `CCn1ccc2c3c(Cn4cncn4)cc(-c4ccccc4)nc3ccc21`
// result 1.12

// query Queued: `CN(C)S(=O)(=O)Oc1ccc(-c2cc(Cn3cncn3)ccc2C#N)cc1`
// result -0.30

// query Entry `CC(C)(C)c1ccc(CN(CC/C=C/c2ccccc2)n2cncn2)cc1` please
// result 3.70

// query One more compound: N#Cc1ccc(C(c2ccc3[nH]ccc3c2)n2ccnc2)cc1 (centres undefined)
// result 1.29

// query What do you have for `COc1ccc(OCc2cn(C(c3ccccc3)c3ccccc3)nn2)cc1` ?
// result 4.18

// query Also, O=C1CC(c2ccccc2)Oc2c1ccc1ccccc21 (centres undefined) please.
// result 3.63

// query Query `Cc1nn(-c2cncc([C@@](C)(O)C(F)(F)F)c2)c2ccccc12` next
// result 3.79

// query Further, for `COc1ccc(-n2c(Cn3ccnc3)cc3ccc(C)cc32)cc1` ?
// result 2.14

// query Query `CCOc1cc2c(cc1-c1cccnc1)CCC(=O)N2` next
// result 2.69

// query Follow-up item: `N#Cc1ccc(Cn2cncn2)c(-c2ccc(OS(N)(=O)=O)c(Cl)c2)c1`
// result 0.28

// query Also `COc1ccc(OCc2cn(C(c3ccc(C#N)cc3)c3ccc(C#N)cc3)nn2)cc1` ?
// result 4.09

// query Input `Clc1ccccc1CN(Cc1ccc(-c2ccccc2)cc1)n1ccnc1`
// result 2.48
